molecular target: 5-hydroxytryptamine receptor 2B (Homo sapiens, UniProt P41595); test: Agonist activity at human 5-HT2B receptor expressed in human Flp-In-293 cells assessed as induction of calcium flux by measuring log(Emax/EC50) incubated for 1 hr by Fluo-4 direct dye based FLIPR assay; assay type: functional, cell-based
Sequence (P41595 whole entry): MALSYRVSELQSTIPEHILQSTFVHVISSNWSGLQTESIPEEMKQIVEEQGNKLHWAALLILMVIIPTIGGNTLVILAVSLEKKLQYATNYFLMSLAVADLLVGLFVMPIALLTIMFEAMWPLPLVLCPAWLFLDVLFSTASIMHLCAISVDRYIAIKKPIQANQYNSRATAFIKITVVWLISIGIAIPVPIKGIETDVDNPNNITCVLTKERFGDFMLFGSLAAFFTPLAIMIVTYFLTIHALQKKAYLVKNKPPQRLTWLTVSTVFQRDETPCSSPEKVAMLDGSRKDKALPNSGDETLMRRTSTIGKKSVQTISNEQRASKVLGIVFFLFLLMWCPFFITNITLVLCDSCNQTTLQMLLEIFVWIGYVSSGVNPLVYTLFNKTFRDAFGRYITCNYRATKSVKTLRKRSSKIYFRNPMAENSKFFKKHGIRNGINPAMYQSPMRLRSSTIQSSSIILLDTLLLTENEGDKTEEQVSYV
quantity: log(ratio)
// print number alone

The examples below pair each entry with its known result.
In: Field request: log(ratio) | item: COc1ccc2occc2c1[C@@H]1C[C@H]1CN
Out: 5.88

In: Field request: log(ratio) | item: COc1ccc2occc2c1[C@H]1C[C@@H]1CN
Out: 6.76

In: Field request: log(ratio) | item: CC(C)Oc1ccc2occc2c1[C@@H]1C[C@H]1CN
Out: 5.74

Proceeding to the next molecule to report its log(ratio).
In: Field request: log(ratio) | item: CCOc1ccc2c(c1[C@@H]1C[C@H]1CN)CCO2
Out: 5.58
